species: Rattus norvegicus; assay: DrugMatrix - Regimen: Daily Repeat; type: toxicity, organism-based, Sprague-Dawley; set-up: regimen Daily Repeat, gender Male, age 6-8 weeks; conditions: in vivo, po, 1500 mg/kg, 120 h, tissue Blood, route oral GAVAGE, dose level High, time 5 day, vehicle .5 % CMC
# key: entry, value: ABSOLUTE SEGMENTED NEUTROPHIL
Report the value in CELLS/uL with no unit label.

Solved entries:
O=c1cnn([C@@H]2O[C@H](CO)[C@@H](O)[C@H]2O)c(=O)[nH]1
1177.33
CC(C)=CCC/C(C)=C/CO
2373.67
CC(C)Oc1ccc2c(=O)c(-c3ccccc3)coc2c1
1100
CN(C)[C@@H]1C(O)=C(C(N)=O)C(=O)[C@@]2(O)C(O)=C3C(=O)c4c(O)ccc(Cl)c4[C@@](C)(O)[C@H]3C[C@@H]12
1266

Please find the next compound below.
Return ABSOLUTE SEGMENTED NEUTROPHIL for the following compound: COC(=O)Nc1nc2ccc([S+]([O-])c3ccccc3)cc2[nH]1 (stereo not given)
380

* * *

# key: entry, value: ABSOLUTE LYMPHOCYTE
species on record: Rattus norvegicus; experiment: DrugMatrix - Regimen: Daily Repeat; format: toxicity, organism-based, Sprague-Dawley; set-up: regimen Daily Repeat, gender Male, age 6-8 weeks; conditions: in vivo, po, 0 mg/kg, 72 h, tissue Blood, route oral GAVAGE, dose level Control, time 3 day, vehicle 100 % WATER
Report the value in CELLS/uL with no unit label.

CC(C)(C)CC(C)(C)c1ccc(OCCOCC[N+](C)(C)Cc2ccccc2)cc1.[Cl-] [BENZETHONIUM CHLORIDE]
12371.67
CN1[C@@H]2CC[C@H]1C[C@@H](OC(=O)C(CO)c1ccccc1)C2 (some centres not stated)
11257.17
CCN(CC)CCNC(=O)c1cc(S(C)(=O)=O)ccc1OC [TIAPRIDE]
10599.5
CN(C)CCOC(c1ccccc1)c1ccccc1 [DIPHENHYDRAMINE]
12371.67
CS(=O)(=O)c1ccc([C@@H](O)[C@@H](CO)NC(=O)C(Cl)Cl)cc1
10599.5

Return ABSOLUTE LYMPHOCYTE for the following molecule: CN(C)CC[C@@H](c1ccc(Cl)cc1)c1ccccn1
11823.5

Return ABSOLUTE LYMPHOCYTE for the following molecule: Cn1c(=O)c2[nH]cnc2n(C)c1=O.O
13654.17

Return ABSOLUTE LYMPHOCYTE for the following molecule: O.O.O.O.O.O.[Cl-].[Cl-].[Sr+2] [STRONTIUM CHLORIDE HEXAHYDRATE]
10599.5

* * *

# key: entry, value: CREATININE
organism: Rattus norvegicus; test: DrugMatrix - Regimen: Daily Repeat; assay type: toxicity, organism-based, Sprague-Dawley; set-up: regimen Daily Repeat, gender Male, age 6-8 weeks; conditions: in vivo, po, 10 mg/kg, 72 h, tissue Plasma, route oral GAVAGE, dose level Low, time 3 day, vehicle .5 % CMC
Report the value in mg/dL with no unit label.

Solved entries:
O=C1C(CC[S+]([O-])c2ccccc2)C(=O)N(c2ccccc2)N1c1ccccc1 (centres undefined) [SULFINPYRAZONE]
0.21
O=C1CN=C(c2ccccc2Cl)c2cc([N+](=O)[O-])ccc2N1 [CLONAZEPAM]
0.16
CNCCC(Oc1ccc(C(F)(F)F)cc1)c1ccccc1 (centres undefined) [FLUOXETINE]
0.5

Return CREATININE for the following compound: Fc1ccc(C(c2ccc(F)cc2)N2CCN(C/C=C/c3ccccc3)CC2)cc1 [FLUNARIZINE]
0.23

* * *

organism: Rattus norvegicus; test: DrugMatrix - Regimen: Daily Repeat; type: toxicity, organism-based, Sprague-Dawley; parameters: regimen Daily Repeat, gender Male, age 6-8 weeks; conditions: in vivo, po, 2000 mg/kg, 120 h, tissue Blood, route oral GAVAGE, dose level High, time 5 day, vehicle .5 % CMC
# key: entry, value: PLATELET COUNT
Report the value in x10E3/uL with no unit label.

Solved entries:
CN/C(=N/CCSCc1nc[nH]c1C)NC#N
1356.67
CC1(C)S[C@@H]2[C@H](NC(=O)[C@H](N)c3ccccc3)C(=O)N2[C@H]1C(=O)O
1262.67
COc1cc2nc(N3CCN(C(=O)c4ccco4)CC3)nc(N)c2cc1OC
1205.67
NC1CCN(c2nc3c(cc2F)c(=O)c(C(=O)O)cn3-c2ccc(F)cc2F)C1 (stereo unspecified)
1193.67
CN(C/C=C/C#CC(C)(C)C)Cc1cccc2ccccc12
1319.67

Please find the next compound below.
Return PLATELET COUNT for the following compound: O=C1Nc2ccc(Cl)cc2C(c2ccccc2Cl)=NC1O (stereo unspecified)
1267

* * *

species: Rattus norvegicus; assay: DrugMatrix - Regimen: Daily Repeat; format: toxicity, organism-based, Sprague-Dawley; set-up: regimen Daily Repeat, gender Male, age 6-8 weeks; details: in vivo, po, 1500 mg/kg, 120 h, tissue Blood, route oral GAVAGE, dose level High, time 5 day, vehicle .5 % CMC
Readout Label: MEAN CORPUSCULAR HEMOGLOBIN CONCENTRATION (G/DL)
Report the value in G/DL with no unit label.

Return MEAN CORPUSCULAR HEMOGLOBIN CONCENTRATION for the following compound: COC(=O)Nc1nc2ccc([S+]([O-])c3ccccc3)cc2[nH]1 (stereo not given)
40.13

Return MEAN CORPUSCULAR HEMOGLOBIN CONCENTRATION for the following compound: CN(C)[C@@H]1C(O)=C(C(N)=O)C(=O)[C@@]2(O)C(O)=C3C(=O)c4c(O)ccc(Cl)c4[C@@](C)(O)[C@H]3C[C@@H]12
40.6

Return MEAN CORPUSCULAR HEMOGLOBIN CONCENTRATION for the following compound: CC(C)Oc1ccc2c(=O)c(-c3ccccc3)coc2c1
39.9

Return MEAN CORPUSCULAR HEMOGLOBIN CONCENTRATION for the following compound: CC(C)=CCC/C(C)=C/CO
40.03

Return MEAN CORPUSCULAR HEMOGLOBIN CONCENTRATION for the following compound: O=c1cnn([C@@H]2O[C@H](CO)[C@@H](O)[C@H]2O)c(=O)[nH]1
38.53

* * *

species on record: Rattus norvegicus; assay: DrugMatrix - Regimen: Daily Repeat; type: toxicity, organism-based, Sprague-Dawley; parameters: regimen Daily Repeat, gender Male, age 6-8 weeks; conditions: in vivo, po, 1500 mg/kg, 72 h, tissue Blood, route oral GAVAGE, dose level High, time 3 day, vehicle .5 % CMC
Readout Label: MEAN CORPUSCULAR HEMOGLOBIN CONCENTRATION (G/DL)
Report the value in G/DL with no unit label.

Solved entries:
O=c1cnn([C@@H]2O[C@H](CO)[C@@H](O)[C@H]2O)c(=O)[nH]1
37.7
CC(C)=CCC/C(C)=C/CO
38.57
COC(=O)Nc1nc2ccc([S+]([O-])c3ccccc3)cc2[nH]1 (stereo not given)
39.1
CC(C)Oc1ccc2c(=O)c(-c3ccccc3)coc2c1
39.67

Return MEAN CORPUSCULAR HEMOGLOBIN CONCENTRATION for the following compound: CN(C)[C@@H]1C(O)=C(C(N)=O)C(=O)[C@@]2(O)C(O)=C3C(=O)c4c(O)ccc(Cl)c4[C@@](C)(O)[C@H]3C[C@@H]12
40.57

* * *

# key: entry, value: HEMOGLOBIN
species: Rattus norvegicus; experiment: DrugMatrix - Regimen: Daily Repeat; format: toxicity, organism-based, Sprague-Dawley; design: regimen Daily Repeat, gender Male, age 6-8 weeks; conditions: in vivo, po, 0 mg/kg, 120 h, tissue Blood, route oral GAVAGE, dose level Control, time 5 day, vehicle .5 % CMC
Report the value in G/DL with no unit label.

Solved entries:
CC(=O)Oc1ccc(C(c2ccc(OC(C)=O)cc2)c2ccccn2)cc1
14.48
CN(C)[C@@H]1C(O)=C(C(N)=O)C(=O)[C@@]2(O)C(O)=C3C(=O)c4c(O)ccc(Cl)c4[C@@](C)(O)[C@H]3C[C@@H]12
14.27
Clc1ccccc1CN1CCc2sccc2C1
15.83

Return HEMOGLOBIN for the following compound: O=C1Nc2ccc(Cl)cc2C(c2ccccc2Cl)=NC1O (stereo unspecified)
13.22

Return HEMOGLOBIN for the following compound: Cn1c(=O)c2c(ncn2CC(O)CO)n(C)c1=O (stereo unspecified)
14.27

Return HEMOGLOBIN for the following compound: O=C1CN=C(c2ccccc2Cl)c2cc([N+](=O)[O-])ccc2N1
13.63

* * *

organism: Rattus norvegicus; experiment: DrugMatrix - Regimen: Daily Repeat; assay type: toxicity, organism-based, Sprague-Dawley; set-up: regimen Daily Repeat, gender Male, age 6-8 weeks; conditions: in vivo, po, 0 mg/kg, 120 h, tissue Plasma, route oral GAVAGE, dose level Control, time 5 day, […]
Readout Label: CREATININE (mg/dL)
Report the value in mg/dL with no unit label.

CC(C)(C)NC(=O)[C@H]1CC[C@H]2[C@@H]3CC[C@H]4NC(=O)C=C[C@]4(C)[C@H]3CC[C@]12C [FINASTERIDE]
0.29
Clc1ccc(COC(Cn2ccnc2)c2ccc(Cl)cc2Cl)cc1 (centres undefined)
0.14

Return CREATININE for the following compound: COc1cc(N)c(Cl)cc1C(=O)NC1CCN(CCCOc2ccc(F)cc2)CC1OC (centres undefined) [CISAPRIDE]
0.17

Return CREATININE for the following compound: CO[C@H]1/C=C/O[C@@]2(C)Oc3c(C)c(O)c4c(O)c(c(/C=N/N5CCN(C6CCCC6)CC5)c(O)c4c3C2=O)NC(=O)/C(C)=C\C=C\[C@H](C)[C@H](O)[C@@H](C)[C@@H](O)[C@@H](C)[C@H](OC(C)=O)[C@@H]1C
0.22
